- System: rat liver microsomes
- Type: biochemical
- Parameters: unit not given here

molecule: OO [H2 O2]
Detector Response, threshold dose: 1-2
//
molecule: C=CC(=O)NCNC(=O)C=C [Methylene(bis)acrylamide, Methylene(bis)-acrylamide]
Detector Response, threshold dose: < 2
//
molecule: NN [Hydrazine]
Detector Response, threshold dose: 0.1-20
//
molecule: Nc1ccccc1 [Aniline]
Detector Response, threshold dose: 5
//
molecule: NC(N)=S [2-Thiourea]
Detector Response, threshold dose: 7
//
molecule: CCN(CC)C(=S)S [Diethyldithiocarbamic acid]
Detector Response, threshold dose: 0.2
